experiment: xn = mol fraction of the nth substance listed, in the solute-free solvent; settings: 293.15 K; x2 = 0.7788
property: solubility (g/100 g solution)
One number for each entry.

// each compound listed below needs its solubility (g/100 g solution)
1. CC(C)C(=O)Nc1ccc([N+](=O)[O-])c(C(F)(F)F)c1 + CCO + O
2. Nc1ncc(Br)nc1Br + CCO + O

Reply |
[21.1, 0.683]

// each compound listed below needs its solubility (g/100 g solution)
1. O=c1cc(CBr)c2ccccc2[nH]1 + CCO + O
2. O=C1C=CC(=O)N1c1ccccc1Br + CCO + O
3. Nc1cc(-c2ccncc2)c[nH]c1=O + CCO + O

Reply |
1: 0.134; 2: 9.83; 3: 0.0174
